Assayed target: GABARAP WT (human GABARAP 1-116) (human, UniProt O95166 1-116)
Sequence (O95166 1-116): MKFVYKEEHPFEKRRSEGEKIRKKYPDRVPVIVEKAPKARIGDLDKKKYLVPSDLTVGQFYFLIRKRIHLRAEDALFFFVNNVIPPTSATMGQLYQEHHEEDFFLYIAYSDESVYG
Experiment description: ITC; peptide in the syringe (0.5 mM) titrated into 200 µl of the Atg8 homologue in the cell at a 10 times lower concentration; MicroCal iTC200, 25 °C, stirring at 1000 rpm; single-site binding model; N fixed to 1.0 when the fitting was not convergent due to weak interaction; errors are fitting errors
Test context: both partners purified
For each of the binders below, state its Kd.
Numbers only; they are read as µM.

Please fill in: Kd reported for YESPFEVIID (numbers count on: isoform e; also called RTN3245-253 WT (Δhelix); source: synthetic peptide) [RTN3245-253 (Δhelix) peptide] = 14

# Kd of ESPFEVIIDKAAFDKEFKDSY (numbers count on: isoform e; Tyr attached to the C terminus for quantification by absorbance at 280 nm; source: synthetic peptide) [RTN3245-264 peptide] = 5.03
